Test system: ribitol dehydrogenase
Format: biochemical, Zymomonas mobilis
protocol-conditions: metal ion 10 mM; enzyme treated with 10 mM EDTA for 24 hours and dialyzed
So basically, if Relative activity (%) 10 mM comes in under 0.4% it's true, and if it's 0.4% or more it's false.

Task: Could you please tell me whether Relative activity (%) 10 mM recorded for [Cl][Mn][Cl] [MnCl2] is less than 0.4%?
Output: false

Task: Could you please tell me whether Relative activity (%) 10 mM recorded for [Cl-].[Cl-].[Zn+2] [ZnCl2] is less than 0.4%?
Output: true

Task: Could you please tell me whether Relative activity (%) 10 mM recorded for [Ca+2].[Cl-].[Cl-] [CaCl2] is less than 0.4%?
Output: false

Task: Could you please tell me whether Relative activity (%) 10 mM recorded for O=S(=O)([O-])[O-].[Cu+2] [CuSO4] is less than 0.4%?
Output: true

Task: Could you please tell me whether Relative activity (%) 10 mM recorded for [Cl][Fe]([Cl])[Cl] [FeCl3] is less than 0.4%?
Output: true
